Origin of the recorded values: paper PMC4627693

target: c-Src tyrosine kinase (recombinant) (UniProt P00523 1-533)
assay_text: cross-linking
Where no end group is shown, it is not given here. The star is where a group is joined. Biotin = O=C1N[C@H]2[C@H](CS[C@H]2CCCCC(=O)*)N1; code Z = ethylene glycol unit
outcome_measure: EC50
The reply should read as a number followed by its unit.

[in] Please supply the value of reported EC50 for the item {Biotin-code Z-code Z}-ICGEFRRR [Cys-Srctide (Biotin-ZZICGEFRRR)]
[out] 63 µM
